- TARGET_ENTITY: 5-HT2A (Homo sapiens, UniProt P28223)
- Sequence (P28223 whole entry): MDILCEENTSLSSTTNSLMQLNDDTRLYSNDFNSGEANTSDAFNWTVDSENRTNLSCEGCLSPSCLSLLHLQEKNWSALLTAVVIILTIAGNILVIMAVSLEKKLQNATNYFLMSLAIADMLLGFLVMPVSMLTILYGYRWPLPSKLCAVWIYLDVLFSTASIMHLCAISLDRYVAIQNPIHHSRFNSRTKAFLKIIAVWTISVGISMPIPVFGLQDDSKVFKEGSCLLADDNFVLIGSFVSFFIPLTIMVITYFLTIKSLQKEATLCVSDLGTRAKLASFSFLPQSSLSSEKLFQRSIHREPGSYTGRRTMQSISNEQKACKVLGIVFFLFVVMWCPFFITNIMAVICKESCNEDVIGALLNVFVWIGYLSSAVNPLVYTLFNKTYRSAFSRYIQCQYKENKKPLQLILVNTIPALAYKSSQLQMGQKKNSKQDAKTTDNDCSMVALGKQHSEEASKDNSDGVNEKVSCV
pKi: −log10 of the molar value. Where a name gives a salt, the structure may show the parent alone.
RECORDED_METRIC: pKi

- COMPOUND: "O=C1COc2ccc(OCCCCN3CCN(c4cccc(Cl)c4Cl)CC3)cc2N1 [Compound B, hydrochloride]"
  OBSERVED_MEASUREMENT: 8.60

Measured values drawn from patent US9907803B2 for this set.
